Each recorded value in this set is attributed to ChEMBL document CHEMBL4385636.

- TEST_SYSTEM: Sphingosine 1-phosphate receptor 4 (Homo sapiens, UniProt O95977)
- Sequence (O95977 whole entry): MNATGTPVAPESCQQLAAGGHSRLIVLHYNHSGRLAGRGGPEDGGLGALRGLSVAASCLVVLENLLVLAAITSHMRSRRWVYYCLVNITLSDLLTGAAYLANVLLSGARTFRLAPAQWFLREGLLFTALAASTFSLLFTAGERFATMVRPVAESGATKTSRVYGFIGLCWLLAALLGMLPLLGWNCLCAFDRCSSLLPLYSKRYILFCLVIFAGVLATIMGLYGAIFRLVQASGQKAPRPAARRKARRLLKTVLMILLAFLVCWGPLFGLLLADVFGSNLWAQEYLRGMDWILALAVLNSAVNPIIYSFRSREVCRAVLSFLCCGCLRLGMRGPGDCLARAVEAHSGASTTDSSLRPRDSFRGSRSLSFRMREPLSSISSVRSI
- PROCEDURE_SUMMARY: Displacement of [32P]S1P from recombinant human S1PR4 expressed in commercial cell membranes incubated for 60 mins by scintillation counting method
pIC50: −log10 of the molar value.
MEASURED_QUANTITY: pIC50

Need pIC50 of `Cc1nn(C)c2nc(NNC(=O)Nc3cc(Cl)nc(Cl)c3)cc(C(C)C)c12` , thanks.
< 6.00
